# Lookup of reported growth keyed by entry
System: SN12C renal
Assay: NCI-60 one-dose screen, 48 h (100 = growth as untreated, 0 = no growth, -100 = all killed)
Settings: 10 µM unless noted
Compounds without any hit were thinned out: in the full panel of roughly 83,000, 20% have a hit.

molecule	growth / %
O=C(Nc1ncc(Cc2ccc(Cl)cc2)s1)c1ccc2c(c1)OCCO2	30.8
COc1ccc(/C(C)=C(\c2ccc(Cl)cc2)c2ccc(OCCCN(C)C)cc2)cc1	79.9
CC(C)(C)n1cc(-c2ccnc(NCCNS(=O)(=O)c3ccc(Br)cc3)c2)c(-c2cccc(O)c2)n1	35.7
O=C1c2c(c3c4cc(F)ccc4oc3c3[nH]c4ccccc4c23)C(=O)N1O	28.1
C/C=C(/C)C(=O)O[C@@H]1CC(C)(C)CC2C34OC(=O)[C@@]21CC[C@@]3(C)[C@]1(C)CCC2C(C)(C)C(=O)CC[C@]2(C)C1C[C@@H]4O (stereo partly specified)	83.7
O=C(Nc1ccc(Cl)cc1)C1=NCCCCN1	94.5
C=C(c1ccc(OC)c(/C=C/C(=O)c2cc(OC)c(OC)c(OC)c2)c1)c1cc(OC)c(OC)c(OC)c1	-13.9
COc1cccc(/C=C2\CCc3ccccc3C2=O)c1	84.6
CN1C(=O)N(C)C2C1NN=c1s/c(=C\c3ccccc3F)c(=O)n12 (stereo unspecified)	26
CN(C)CCOc1nc2c3cc([N+](=O)[O-])ccc3nn2c2ccccc12	14
COc1cc(/C=C/C(=O)c2ccc(-n3cc(CN4CCN(c5cc6c(cc5F)c(=O)c(C(=O)O)cn6C5CC5)CC4)nn3)cc2)cc(OC)c1OC	58.8
COc1ccc2c(c1)c(-c1nc(-c3cn(C)c4ccncc34)cs1)cn2C	94.2
CCN1CCN(c2cc(C(=O)Nc3cccc(Nc4ccc5c(OC)cccc5n4)c3)cc(C(F)(F)F)c2)CC1	25.4
CC1=NC(=S)NC(c2ccccc2)/C1=C1/CC(c2ccccc2O)NN1 (stereo unspecified)	97.5
C/C(=N\NC(=O)c1ccc(C(C)(C)C)cc1)c1ccc(O)cc1O	33.7
CCCc1cc(CCC)n2nc(N)nc2n1	101
O=c1c2cccc3c(N4CCOCC4)ccc(c32)c2nc3ccccc3n12	87.6
C#CCOc1cc(/C=N/Nc2nc(-c3ccc(OC)cc3)cs2)ccc1O	86.8
N#Cc1c(-c2ccc(F)cc2)cc(-c2cccc(Cl)c2)[nH]c1=O	60.3
O=C(Cn1cc(CSc2nc3ccccc3o2)nn1)Nc1ccc([N+](=O)[O-])cc1	102
CCOC(=O)CCC(=O)P(=O)(O)O	108
